Listed next: entries and their corresponding In vitro Activity (relative activity to SEQ ID NO: 1, %); cAMP assay, from EC50.
molecular target: human glucagon receptor (human, UniProt P47871 26-477); test: cell-based or functional assay
Sequence (P47871 26-477): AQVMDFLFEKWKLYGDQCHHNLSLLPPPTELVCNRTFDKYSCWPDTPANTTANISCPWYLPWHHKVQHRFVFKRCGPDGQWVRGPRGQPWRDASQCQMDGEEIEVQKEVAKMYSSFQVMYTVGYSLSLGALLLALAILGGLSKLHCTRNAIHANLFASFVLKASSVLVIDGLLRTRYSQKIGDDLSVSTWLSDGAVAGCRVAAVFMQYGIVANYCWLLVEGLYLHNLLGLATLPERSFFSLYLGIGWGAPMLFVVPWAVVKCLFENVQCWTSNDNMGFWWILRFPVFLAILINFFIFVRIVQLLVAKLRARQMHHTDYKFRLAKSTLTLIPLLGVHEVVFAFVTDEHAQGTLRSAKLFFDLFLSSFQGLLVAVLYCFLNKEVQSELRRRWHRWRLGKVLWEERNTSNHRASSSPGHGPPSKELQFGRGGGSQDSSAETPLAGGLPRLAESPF
Bridge positions count the residues as written; N and C are the ends. Square brackets hold non-standard residues; d marks the D form. Ends that are not written are not given here. Aib = CC(C)(N)C(=O)O
Recorded endpoint: In vitro Activity (relative activity to SEQ ID NO: 1, %); cAMP assay, from EC50

| Binder | Inequality sign | Reported value |
| --- | --- | --- |
| Y[Aib]QGTFTSDYSKYLDSCDAQDFVVWLINT [glucagon derivative of SEQ ID NO: 9] | < | 0.1 |
| Y[Aib]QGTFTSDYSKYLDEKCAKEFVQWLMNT (lactam 16-20) [glucagon derivative of SEQ ID NO: 21] | = | 57.8 |
| Y[Aib]QGTFCSDYSKYLDSRRAQDFVQWLMNT [glucagon derivative of SEQ ID NO: 42] | = | 37.9 |
| HSQGTFTSDYSKYLDCERAQDFVQWLMNT [glucagon derivative of SEQ ID NO: 3] | = | 6.1 |
| YXQGTFTSDYSKYLDSRRAQDFVQWLMNT (X at position 2 = aminoisobutyric acid (Aib)) [glucagon derivative of SEQ ID NO: 33] | = | 108 |
| HSQGTFTSDYSKYLDSCEADDFVQWLMNT [glucagon derivative of SEQ ID NO: 6] | < | 0.1 |
